This listing pairs compounds with measured pIC50.
Target: CXCR7 receptor (Homo sapiens (Human), UniProt P25106)
Sequence (P25106 whole entry): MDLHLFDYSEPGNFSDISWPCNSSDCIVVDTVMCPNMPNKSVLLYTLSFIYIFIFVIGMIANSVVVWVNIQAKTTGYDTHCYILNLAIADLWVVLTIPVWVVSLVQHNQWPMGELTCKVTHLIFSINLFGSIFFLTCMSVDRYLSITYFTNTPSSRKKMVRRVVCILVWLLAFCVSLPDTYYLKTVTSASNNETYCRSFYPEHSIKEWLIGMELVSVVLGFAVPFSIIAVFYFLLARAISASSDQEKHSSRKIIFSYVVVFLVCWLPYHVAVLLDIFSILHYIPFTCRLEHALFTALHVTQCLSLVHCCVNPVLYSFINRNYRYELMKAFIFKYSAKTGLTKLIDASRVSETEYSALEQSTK
Assay: Buffer Binding Analysis: displacement of 125I-labeled SDF-1 from CXCR7
Settings: 125I SDF-1 displacement, buffer binding medium, MCF-7 and/or MDA-MB-435S CXCR7 transfected cells, 3 hr at 4° C.; read-out: Avg Bind IC50
pIC50: −log10 of the molar value.

Consider the worked cases shown below.
Cc1cc(Cl)ccc1-n1ccc(C(=O)N[C@H]2CCN(c3nccn4ccc(C)c34)C2)n1	≥ 6.30
O=C(N[C@H]1CCN(c2nccn3cnnc23)C1)c1coc(-c2ccc(F)cc2)n1	≥ 6.30
O=C(N[C@H]1CCN(c2nccn3cccc23)C1)c1nnc(-c2ccccc2)[nH]1	≥ 6.30

// next item, pIC50 requested
**Query** Please report the measured pIC50 for Cc1ccn2ccnc(N3CC[C@H](NC(=O)c4coc(-c5ccccc5)n4)C3)c12
**Result** ≥ 6.30

* * *

This listing pairs compounds with measured IC50.
Target: CXCR7 receptor (Homo sapiens (Human), UniProt P25106)
Experiment: Serum Binding Analysis: displacement of 125I-labeled SDF-1 from CXCR7 in 100% human serum
Conditions: 125I SDF-1 displacement in 100% human serum, MCF-7 and/or MDA-MB-435S CXCR7 transfected cells, 3 hrs at 4° C.; read-out: Avg Ser IC50

**Query** Please report the measured IC50 for Cc1cn2cccc2c(N2CC[C@H](NC(=O)c3csc(-c4ccccc4)n3)C2)n1 [Compound 1.023]
**Result** ≤ 500 nM

**Query** Please report the measured IC50 for O=C(N[C@H]1CCN(c2nccn3cccc23)C1)c1ccn(-c2ccc(Cl)cc2)n1 [Compound 1.129]
**Result** ≤ 500 nM

**Query** Please report the measured IC50 for O=C(N[C@H]1CCN(c2nccn3ccnc23)C1)c1coc(-c2ccccc2)n1 [Compound 1.070]
**Result** ≤ 500 nM

**Query** Please report the measured IC50 for O=C(NC1(CO)CCN(c2nccn3ccnc23)C1)c1csc(N2CCC(O)CC2)n1 (centres unmarked) [Compound 1.058]
**Result** ≤ 500 nM

* * *

Target: CXCR7 receptor (Homo sapiens (Human), UniProt P25106)
Experiment: Serum Binding Analysis: displacement of 125I-labeled SDF-1 from CXCR7 in 100% human serum
Details: 125I SDF-1 displacement in 100% human serum, MCF-7 and/or MDA-MB-435S CXCR7 transfected cells, 3 hrs at 4° C.; read-out: Avg Ser IC50
pIC50: −log10 of the molar value.
This listing pairs compounds with measured pIC50.

O=C(N[C@H]1CCN(c2nccn3cccc23)C1)c1ccn(C2CCOCC2)n1 [Compound 1.088]	≥ 6.30
Cc1ccn2ccnc(N3CC[C@H](NC(=O)c4csc(-c5ccccc5)n4)C3)c12 [Compound 1.105]	5.60 to 6.30
O=C(N[C@H]1CCN(c2nccn3cccc23)C1)c1coc(-c2ccccc2)n1 [Compound 1.125]	≥ 6.30
Cc1ccn2ccnc(N3CC[C@H](NC(=O)c4ncn(-c5ccccc5)n4)C3)c12 [Compound 1.117]	≥ 6.30
CN(C)c1cnc(C(=O)N[C@H]2CCN(c3nccn4cccc34)C2)cn1 [Compound 1.049]	≥ 6.30
O=C(N[C@@H]1CCN(c2nccn3ccnc23)C1)c1ncn(-c2ccc(F)cc2)n1 [Compound 1.010]	5.60 to 6.30

**Query** Please report the measured pIC50 for CC(C)c1cnc(C(=O)N[C@H]2CCN(c3nccn4cnnc34)C2)nc1 [Compound 1.061]
**Result** 5.60 to 6.30

**Query** Please report the measured pIC50 for O=C(N[C@H]1CCN(c2nccn3cnnc23)C1)c1csc(-c2ccccc2)n1 [Compound 1.066]
**Result** ≥ 6.30

**Query** Please report the measured pIC50 for O=C(N[C@H]1CCN(c2nccn3cccc23)C1)c1cnc(C2CC2)cn1 [Compound 1.052]
**Result** ≥ 6.30

**Query** Please report the measured pIC50 for O=C(N[C@H]1CCN(c2nccn3cccc23)C1)c1noc(C2CCOCC2)n1 [Compound 1.082]
**Result** 5.60 to 6.30

**Query** Please report the measured pIC50 for O=C(N[C@H]1CCN(c2nccn3cccc23)C1)c1csc(-c2ccccc2)n1 [Compound 1.124]
**Result** ≥ 6.30

**Query** Please report the measured pIC50 for CC(C)c1cnc(C(=O)NC2(CO)CCN(c3nccn4cccc34)C2)nc1 (centres unmarked) [Compound 1.060]
**Result** ≥ 6.30

**Query** Please report the measured pIC50 for Cc1ccccc1-c1nc(C(=O)N[C@H]2CCN(c3nccn4cccc34)C2)co1 [Compound 1.080]
**Result** 5.60 to 6.30

**Query** Please report the measured pIC50 for O=C(N[C@H]1CCN(c2nccn3cccc23)C1)c1ccn(-c2ccc(Cl)c(F)c2)n1 [Compound 1.114]
**Result** ≥ 6.30

**Query** Please report the measured pIC50 for O=C(NC1(CO)CCN(c2nccn3cccc23)C1)c1ncn(-c2ccccc2)n1 (centres unmarked) [Compound 1.051]
**Result** ≥ 6.30

**Query** Please report the measured pIC50 for O=C(N[C@H]1CCN(c2nccn3cnnc23)C1)c1coc(-c2ccc(F)cc2)n1 [Compound 1.122]
**Result** ≥ 6.30

**Query** Please report the measured pIC50 for CC1(O)CCN(c2nc(C(=O)N[C@H]3CCN(c4nccn5cccc45)C3)cs2)CC1 [Compound 1.055]
**Result** ≥ 6.30
